// data source = PubChem BioAssay AID2842

# Test system: M. tuberculosis H37Rv growth inhibition
# Experiment Notes: Mycobacterium tuberculosis H37Rv growth inhibition, putative kinase inhibitor library, confirmatory dose response (AID 2842);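 further: bacteria incubated one week before Alamar blue readout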
IC90 by entry:

// known answers, use as guide
[
  {
    "Compound": "Cc1ccc2sc(NNC(=O)C3COc4ccccc4O3)nc2c1C (stereo unspecified)",
    "IC90": "0.88 µg/mL"
  },
  {
    "Compound": "O=C1N/C(=N/N=C/c2ccccc2O)SC1Cc1ccc(Cl)cc1Cl (stereo unspecified)",
    "IC90": "1.32 µg/mL"
  },
  {
    "Compound": "CC(C)(C)c1ccc(C(=O)Nc2nnc(-c3ccccn3)o2)cc1",
    "IC90": "8.06 µg/mL"
  },
  {
    "Compound": "COc1cccc2sc(Nc3nnc(-c4ccccc4)o3)nc12",
    "IC90": "6.08 µg/mL"
  },
  {
    "Compound": "CCCCOc1ccc(C(=O)Nc2nnc(-c3ccncc3)o2)cc1",
    "IC90": "3.42 µg/mL"
  }
]

Looking up "COc1ccc2nc(Nc3nc4c(OC)cccc4s3)sc2c1" , I found its IC90 recorded as 3.38 µg/mL

Record "COc1cccc2sc(Nc3nnc(-c4ccc(F)cc4)o3)nc12" , field IC90: 2.97 µg/mL

Per the record, "Cc1ccc(C)c(-c2nnc(NC(=O)c3cccc(F)c3)o2)c1" has IC90 of 30.9 µg/mL

Lab book: IC90 of Oc1ccc(Br)cc1C1CC(c2ccoc2)=NN1 (stereo unspecified) noted as 25.3 µg/mL

Sure, the documented IC90 for "CCCCc1ccc2[nH]cc(C(=O)O)c(=O)c2c1" is 14.5 µg/mL

Quick note, IC90 for "COc1cc(OC)cc(C(=O)N(CCCn2ccnc2)c2nc3c(C)cc(C)cc3s2)c1" landed at 10.1 µg/mL

The recorded IC90 for entry "O=C(NNc1nc2c(F)cccc2s1)c1cc2ccccc2oc1=O" equals 8.19 µg/mL

The value of IC90 measured for the compound "C=CCOC(=O)COc1ccc2cc(-c3ccc(OC)cc3)c(=O)oc2c1" turned out to be 3.58 µg/mL

The recorded IC90 for entry "COc1ccc(-c2nc(C(N)=O)c3[nH]c(=O)n(-c4ccc(C(C)(C)C)cc4)c3n2)c(OC)c1" equals 17.3 µg/mL

IC90 measured on CN(C)S(=O)(=O)c1ccc(C(=O)N2CC(=O)Nc3ccc(Br)cc3C2c2ccccc2)cc1 (stereo unspecified) = 35.3 µg/mL
